# target-desc: T1, extracellular domain of rhesus monkey BCMA (rhesus monkey, UniProt F7FFA0 1-53)
# T1 construct: extracellular domain; also called RhBCMA
# T1 sequence (F7FFA0 entry or part of it): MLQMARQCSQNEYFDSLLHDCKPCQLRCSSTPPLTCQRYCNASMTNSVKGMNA
# assay-protocol: Octet BLI; Fab 200 nM
experimental-readout: pKd
# pKd: negative log10 of molar concentration; output just the value

Use the examples below as a reference point.
AB200-R1a-Fab_VH38 (Fab, V domains shown) VH: QVQLVQSGAEVKKPGSSVKVSCKASGGTFSNYWMHWVRQAPGQGLEWMGATYRGHSDTYFNQKFKGRVTITADKSTSTAYMELSSLRSEDTAVYYCARGAIFNGYDVLDNWGQGTLVTVSS VL: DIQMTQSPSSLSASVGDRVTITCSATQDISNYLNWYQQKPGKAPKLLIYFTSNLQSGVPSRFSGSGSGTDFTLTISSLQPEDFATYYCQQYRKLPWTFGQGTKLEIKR ... 7.92
AB200-R1a-Fab_VH46 (Fab, V domains shown) VH: QVQLVQSGAEVKKPGSSVKVSCKASGGTFSNYWMHWVRQAPGQGLEWMGATYRGHSDTNYNQKYKGRVTITADKSTSTAYMELSSLRSEDTAVYYCARGAIYNGYDVLDNWGQGTLVTVSS VL: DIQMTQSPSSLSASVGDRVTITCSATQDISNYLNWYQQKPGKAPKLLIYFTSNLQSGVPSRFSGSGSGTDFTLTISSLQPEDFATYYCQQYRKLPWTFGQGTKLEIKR ... 7.70
AB200-R1a-Fab_VH15 (Fab, V domains shown) VH: QVQLVQSGAEVKKPGSSVKVSCKASGGTYSNYWMHWVRQAPGQGLEWMGATYRGHSDAYYNQRFKGRVTITADKSTSTAYMELSSLRSEDTAVYYCARGAIYHGYDVLDNWGQGTLVTVSS VL: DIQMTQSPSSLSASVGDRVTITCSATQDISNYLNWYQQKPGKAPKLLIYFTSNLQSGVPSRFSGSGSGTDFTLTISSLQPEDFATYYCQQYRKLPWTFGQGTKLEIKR ... 7.77

// query Entry AB200-R1a-Fab_VH44 (Fab, V domains shown) VH: QVQLVQSGAEVKKPGSSVKVSCKASGGTFSNYWMHWVRQAPGQGLEWMGGTYRGHSDTYYNQRFKGRVTITADKSTSTAYMELSSLRSEDTAVYYCARGAIYHGYDILDNWGQGTLVTVSS VL: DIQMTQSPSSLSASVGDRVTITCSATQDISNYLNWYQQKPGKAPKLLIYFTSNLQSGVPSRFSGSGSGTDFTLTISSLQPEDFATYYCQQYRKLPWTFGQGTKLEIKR : reported pKd = ?
// result 8.07

// query And what about the binder AB200-R1a-Fab_VH17 (Fab, V domains shown) VH: QVQLVQSGAEVKKPGSSVKVSCKASGGTFSSYWMHWVRQAPGQGLEWMGATYRGHSDTYYAQKFKGRVTITADKSTSTAYMELSSLRSEDTAVYYCARGAIYHGYEVLDNWGQGTLVTVSS VL: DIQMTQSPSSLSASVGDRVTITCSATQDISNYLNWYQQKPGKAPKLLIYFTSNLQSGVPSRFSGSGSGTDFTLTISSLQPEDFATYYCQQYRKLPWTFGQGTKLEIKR ?
// result 7.15

// query And what about the binder AB200-R1a-Fab_VH59 (Fab, V domains shown) VH: QVQLVQSGAEVKKPGSSVKVSCKATGGTFSNYAMHWVRQAPGQGLEWMGASYRGHSDTYYNQKFKGRVTITADKSTSTAYMELSSLRSEDTAVYYCARGAIYHGYDVLDNWGQGTLVTVSS VL: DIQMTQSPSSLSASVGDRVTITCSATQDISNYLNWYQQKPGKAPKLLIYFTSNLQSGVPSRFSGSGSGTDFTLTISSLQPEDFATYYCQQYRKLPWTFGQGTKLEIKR ?
// result 7.55

// query And what about the binder AB200-R1a-Fab_VH33 (Fab, V domains shown) VH: QVQLVQSGAEVKKPGSSVKVSCKASGGTFTNFWMHWVRQAPGQGLEWMGATYRGQSDTYYNQKFKGRVTITADKSTSTAYMELSSLRSEDTAVYYCARGAIYHGYDVLDNWGQGTLVTVSS VL: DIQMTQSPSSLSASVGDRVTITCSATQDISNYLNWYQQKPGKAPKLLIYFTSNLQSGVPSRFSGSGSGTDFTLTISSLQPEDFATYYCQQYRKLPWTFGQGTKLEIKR ?
// result 8.29

// query And what about the binder AB200-R1a-Fab_VH50 (Fab, V domains shown) VH: QVQLVQSGAEVKKPGSSVKVSCKASGGTFSNYWMHWVRQAPGQGLEWMGATFRGHSDTYYNQKFKSRVTITADKSTSTAYMELSSLRSEDTAVYYCARGAVYHGYDVLDNWGQGTLVTVSS VL: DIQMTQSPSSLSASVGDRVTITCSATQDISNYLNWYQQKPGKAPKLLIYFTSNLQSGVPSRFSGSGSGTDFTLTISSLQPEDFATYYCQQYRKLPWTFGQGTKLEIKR ?
// result 8.02

// query And what about the binder AB200-R1a-Fab_VH36 (Fab, V domains shown) VH: QVQLVQSGAEVKKPGSSVKVSCKASGGTFSNYWMHWVRQAPGQGLEWMGATFRGHSDTYYNHKFKGRVTITADKSTSTAYMELSSLRSEDTAVYYCARGAIYHGFDVLDNWGQGTLVTVSS VL: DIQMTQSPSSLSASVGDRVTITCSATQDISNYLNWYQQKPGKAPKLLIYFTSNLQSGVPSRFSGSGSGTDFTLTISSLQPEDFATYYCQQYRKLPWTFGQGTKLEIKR ?
// result 7.34

// query And what about the binder AB200-R1a-Fab_VH48 (Fab, V domains shown) VH: QVQLVQSGAEVKKPGSSVKVSCKASGGTFSDYWMHWVRQAPGQGLEWMGATYRGHSDTYYNQRFKGRVTITADKSTSTAYMELSSLRSEDTAVYYCARGAIYHGYDVMDNWGQGTLVTVSS VL: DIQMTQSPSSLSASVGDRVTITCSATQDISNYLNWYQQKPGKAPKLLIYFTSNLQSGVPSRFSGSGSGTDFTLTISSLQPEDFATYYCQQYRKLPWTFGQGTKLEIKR ?
// result 7.60

Attribution: patent US20240327535A1
